- measurementTarget: human plasma factor XIa (human, UniProt P03951 19-625)
- assayComment: protease inhibition, Ki,app
readoutKind: Ki (µM)
Numbers only here, please. The scale is µM.

If you can, please state the reported Ki value of PEP-1 KI polypeptide (designed binder, Non-naturally occurring Kunitz domain polypeptide from a phage display library; Molecular weight 7,054 Daltons) EAMHSFCAFKADDGPCRAAHPRWFFNIFTRQCEEFIYGGCEGNQNRFESLEECKKMCTRD .
0.01
